# Tested on: Saccharomyces cerevisiae
# protocol: protein stability index of tFT-peptide fusion (C-terminal peptide) (PSI (0-1 scale)); higher = more stable (slower turnover)
# experimental context: genetic background: das1 deletion; temperature: 30 C
Kindly state protein stability index for each of the entries shown.
Give your answer as a number; write no unit.

Saccharomyces cerevisiae protein stability index of DIMVFEISNCRV [HIS1 C-terminal 12 aa] is 0.682

Saccharomyces cerevisiae protein stability index of DSVIVVLKTPVE [SMD2 C-terminal 12 aa] is 0.674

Saccharomyces cerevisiae protein stability index of AATAKGKGKKKK [RSM27 C-terminal 12 aa] is 0.699

Saccharomyces cerevisiae protein stability index of NVGVIRPLLDLQ [YGR069W C-terminal 12 aa] is 0.743

Saccharomyces cerevisiae protein stability index of ESKDDDDDDDWE [DOS2 C-terminal 12 aa] is 0.709

Saccharomyces cerevisiae protein stability index of PPNTLWHYNFRK [MRPL28 C-terminal 12 aa] is 0.751

Saccharomyces cerevisiae protein stability index of GTKVDDDKKNKS [SPP2 C-terminal 12 aa] is 0.704

Saccharomyces cerevisiae protein stability index of LTLNWGVEIVKK [RDI1 C-terminal 12 aa] is 0.73

Saccharomyces cerevisiae protein stability index of YVKEAQSVVTSL [YIR043C C-terminal 12 aa] is 0.672

Saccharomyces cerevisiae protein stability index of ELDDILGSDSDF [MPH1 C-terminal 12 aa] is 0.711

Saccharomyces cerevisiae protein stability index of MQRVSTQHEKSS [PMA2 C-terminal 12 aa] is 0.693

Saccharomyces cerevisiae protein stability index of ASGEYESDGSDD [RRN3 C-terminal 12 aa] is 0.677

* * *

# Tested on: Saccharomyces cerevisiae
# protocol: protein stability index of tFT-peptide fusion (C-terminal peptide) (PSI (0-1 scale)); higher = more stable (slower turnover)
# experimental context: genetic background: wild type; temperature: 30 C
Kindly state protein stability index for each of the entries shown.
Give your answer as a number; write no unit.

Measured protein stability index of SPPPPTLPPAYL : 0.658

Measured protein stability index of PTLPTLFPSSSL : 0.745

Measured protein stability index of SVVLGSVHVLTR : 0.661

Measured protein stability index of PLVLPPINLFLV : 0.189

Measured protein stability index of VNGLVLFEYLMV : 0.579

Measured protein stability index of GSCGWCGVARWG : 0.762

Measured protein stability index of RQCAACLGNPST : 0.665

Measured protein stability index of CVPLPCLPLPPS : 0.66

Measured protein stability index of RKNGEDLKKRGT : 0.726

Measured protein stability index of GGWGPGALEVGT : 0.658

Measured protein stability index of PPSLPLPLPSAP : 0.683

Measured protein stability index of SYLTQNGYAFRQ : 0.644

Measured protein stability index of VSFCRVLQSSQS : 0.692

Measured protein stability index of MKNKSTEKNRKF : 0.728

Measured protein stability index of LYVTYVPYTYAT : 0.665

Measured protein stability index of SKLVSPGVPRTP : 0.78

Measured protein stability index of LTPSVRDKRPPI : 0.759

Measured protein stability index of VWGGVICFGLWM : 0.579

Measured protein stability index of GEWVNLGFGFLF : 0.781
